Origin of values: patent US11091460B2

Test system: AKT phosphorylation
assayOverview: In vitro test of the inhibition effect on AKT phosphorylation (ELISA, Ramos cells)
Format: cell-based
statedConditions: Homo sapiens, Ramos, Ramos cell line, compound 1 hour, goat anti-human IgM 10 ug/ml for 10 minutes, Phospho-AKT 1/2/3 (ser473) ELISA; read-out: Inhibit AKT phosphorylation IC50
measuredProperty: IC50 (µM)

- molecule: "Cn1c(=O)c(Nc2ccc(N3CCOCC3)cn2)cc2c(F)c(-c3cc[nH]n3)ccc21"
  IC50 / µM: 0.23
- molecule: "CN1CCCN(c2ccc(Nc3nc4ccc(-c5cn[nH]c5)cc4n(C)c3=O)cc2)CC1"
  IC50 / µM: 0.261
- molecule: "Cn1c(=O)c(Nc2ccc(N3CCCC(C)(C(=O)O)C3)cn2)cc2c(F)c(-c3cc[nH]n3)ccc21 (stereo not shown)"
  IC50 / µM: 0.255
- molecule: "Cn1c(=O)c(Nc2ccc(N)cn2)cc2c(F)c(-c3cc[nH]n3)ccc21"
  IC50 / µM: 0.197

###

targetEntity: UniProt P43405
measuredProperty: pIC50
Hey, just a heads up that pIC50 is the negative log base 10 of the concentration in molar.

- compound: "Cn1c(=O)c(Nc2ccc(C3(O)CCC3)cn2)cc2c(F)c(-c3cc[nH]n3)ccc21 [Example 21]"
  pIC50: 7.66
- compound: "Cn1c(=O)c(Nc2ccc(C3(F)COC3)cn2)cc2c(F)c(-c3cc[nH]n3)ccc21 [Example 23]"
  pIC50: 7.57

Now look at this one.
pIC50 on UniProt P43405 for CN1CCN(c2ccc(Nc3nc4ccc(-c5cn[nH]c5)cc4n(C)c3=O)cc2)CC1 [Example 33] is 8.49

###

Listed below: pIC50 values for each entry.
targetEntity: SYK kinase (Homo sapiens, UniProt P43405)
Hey, just a heads up that pIC50 is the negative log base 10 of the concentration in molar.

Example results:
- compound: "Cn1c(=O)c(Nc2ccc(N3CCOCC3)c(F)c2)nc2ccc(-c3cn[nH]c3)cc21"
  targetEntity: "SYK kinase (Homo sapiens, UniProt P43405)"
  pIC50: 7.98
- compound: "Cn1c(=O)c(Nc2ccc(N3C4CCC3CNC4)cc2)nc2ccc(-c3cn[nH]c3)cc21"
  targetEntity: "SYK kinase (Homo sapiens, UniProt P43405)"
  pIC50: 8.30

Now look at this one.
Short answer for Cn1c(=O)c(Nc2ccc(N3CCCC(C(=O)O)C3)cc2)nc2ccc(-c3cn[nH]c3)cc21 (stereo not drawn) : pIC50 was 8.39
